System: L1210 leukemia ip in BDF1 mice, survival T/C
assay_name: NCI In Vivo Anticancer Drug Screen. Data for tumor model L1210 Leukemia (intraperitoneal) in B6D2F1 (BDF1) mice
condition_label: endpoint: mean survival time; dose: 100.0 mg/kg/injection; schedule: Q01DX009 (ip); vehicle: saline sonified; higher = longer survival
Toxic doses and inconclusive results are not listed.
Task for the reader: assign each of the following compounds its reported T/C.

Considering CCN(CC)C(=O)OC/C=C\CC(Cl)(Cl)Cl , its T/C with L1210 leukemia ip in BDF1 mice, survival T/C was recorded as 111 % of control

Considering CC(C)(C)C1CC=CCC1 (centres undefined) , its T/C with L1210 leukemia ip in BDF1 mice, survival T/C was recorded as 102 % of control

Considering O=C(O)CC1CC=CCC1CC(=O)O (centres undefined) , its T/C with L1210 leukemia ip in BDF1 mice, survival T/C was recorded as 95 % of control

Considering NNc1cnc2ccccc2n1 , its T/C with L1210 leukemia ip in BDF1 mice, survival T/C was recorded as 90 % of control
